assay: Plasma concentration-time profile (AUC) after oral dosing to dogs; assay type: in vivo, beagle dogs; conditions: beagle, dog, plasma, 10 mg/kg po, gelcaps
measure-name: AUC (ng·h/mL)
Please give a number only; it is taken to be in ng·h/mL.

Please give the measured AUC for this compound: CC(c1cc2ccccc2s1)N(O)C(N)=O (racemic) [racemic zileuton]
87000

====

tested on: LTB4 production in human whole blood; test: Human whole blood assay of LTB4 inhibition; format: cell-based; settings: A23187 50 μM
Listed here are compounds together with their documented IC50.

In the examples that follow, each entry is paired with its recorded IC50.
C[C@@H](c1cc2ccccc2s1)N(O)C(N)=O [(S)-zileuton] : 4770 nM
C[C@H](c1cc2ccccc2s1)N(O)C(N)=O [(R)-zileuton] : 399 nM

Alright, here's another compound for you.
Given the compound CC(c1cc2ccccc2s1)N(O)C(N)=O (racemic) [racemic zileuton] , what is its reported IC50?
745 nM
